Origin of values: ChEMBL document CHEMBL5058577

System: U2OS
Assay: Multiplex assay against U2OS
Format: toxicity, cell-based
Conditions: human, 12 h, 1 µM, compound concentration 1 uM, replicate 2
The following molecules are listed with their measured Population Healthy Nuclei (%) values.

{"columns": ["molecule", "Population Healthy Nuclei (%)"],
 "data": [
  ["Cc1ccc(C(C)(O)c2nc3ccccc3s2)c(C)c1 (configuration not stated)", 78],
  ["COc1cc(NC(=O)CCN2CCC(OC(=O)Nc3ccccc3-c3ccccc3)CC2)c(Cl)cc1CNC[C@H](O)c1ccc(O)c2[nH]c(=O)ccc12", 78],
  ["CCCC(CCC)C(=O)O", 77],
  ["C[C@H]1[C@H]2CC[C@H]3[C@@H]4CC=C5C[C@@H](N(C)C)CC[C@]5(C)[C@H]4CC[C@]23CN1C", 73],
  ["CCOc1c2c(c(OCC)c3ncccc13)CN(c1ccc(CS(=O)(=O)NC(=O)Cc3ccccc3OC)cc1C)C2=O", 82],
  ["N#Cc1c(N)nc(SCc2csc(-c3ccc(Cl)cc3)n2)c(C#N)c1-c1ccc(OCCO)cc1", 75],
  ["CN(C)c1ccnc2sc3c(=O)n(N4CCCCCC4)cnc3c12", 77],
  ["CC(C)(C)c1ccc(S(=O)(=O)Nc2ccc(Cl)cc2C(=O)c2cc[n+]([O-])cc2)cc1", 79],
  ["c1cc(OCCCN2CCCCC2)ccc1CN1CCCCC1", 62],
  ["Cc1ccc(F)cc1C(=O)Nc1ccc(C(=O)N2Cc3cccn3Cc3ccccc32)c(Cl)c1", 82],
  ["Oc1c(CN2CCN(c3ccccn3)CC2)cc(Cl)c2cccnc12", 78],
  ["C[C@@H]1C[C@H]2[C@@H]3CCC4=CC(=O)C=C[C@]4(C)[C@@]3(F)[C@@H](O)C[C@]2(C)[C@@]1(O)C(=O)CO", 75],
  ["O=S(=O)(c1ccccc1)c1cnc2c(N3CCNCC3)cccc2c1 [INTEPIRDINE]", 71],
  ["CC[C@H]1OC(=O)[C@H](C)[C@@H](O[C@H]2C[C@@](C)(OC)[C@@H](O)[C@H](C)O2)[C@H](C)[C@@H](O[C@@H]2O[C@H](C)C[C@H](N(C)C)[C@H]2O)[C@@]2(C)CC(C)=C(O2)[C@H](C)[C@@H](O)[C@]1(C)O", 62],
  ["Cc1ccc(-c2ccc(F)cc2COc2ccc(CCC(=O)O)cc2)cc1", 74],
  ["CSc1ccccc1N1CCN(CCCCCC(=O)NC2CCCc3ccccc32)CC1.Cl (configuration not stated)", 63],
  ["CN(C)CCCc1cc(C(=O)Nc2ccc(-c3ccncc3)cc2)ccc1O.Cl.Cl", 75]
]}
